This collection of values is drawn from PubChem BioAssay AID463203.

biological target: Glycogen synthase kinase-3 alpha (Homo sapiens) (UniProt P49840); experiment: concentration-response blocking of human GSK3A – biochemical, luminescence, cell-free homogeneous, retest, dose response (AID 463203); conditions: GSK-3 alpha enzyme, ADP-Glo luminescence, 60 min
Sequence (P49840 whole entry, looked up): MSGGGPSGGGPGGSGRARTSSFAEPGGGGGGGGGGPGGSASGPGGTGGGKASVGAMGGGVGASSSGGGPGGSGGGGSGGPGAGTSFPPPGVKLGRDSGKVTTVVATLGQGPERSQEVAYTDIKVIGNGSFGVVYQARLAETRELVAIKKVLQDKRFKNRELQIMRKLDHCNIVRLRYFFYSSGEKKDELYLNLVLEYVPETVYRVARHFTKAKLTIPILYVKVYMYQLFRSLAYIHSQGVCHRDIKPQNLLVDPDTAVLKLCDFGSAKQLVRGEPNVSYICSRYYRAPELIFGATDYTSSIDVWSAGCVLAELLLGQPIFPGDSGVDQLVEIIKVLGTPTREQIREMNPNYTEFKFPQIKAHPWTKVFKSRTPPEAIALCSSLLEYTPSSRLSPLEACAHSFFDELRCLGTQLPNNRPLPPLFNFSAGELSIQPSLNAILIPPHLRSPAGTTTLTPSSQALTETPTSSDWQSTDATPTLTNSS
Active and inactive are the calls of the source.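 How the source made its calls: active means more than half of replicate measurements showing over 20% loss of kinase signal relative to plate controls; inconclusive means some but at most half of replicates over 20% loss; inactive means no replicate over 20% signal loss.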
Outcomes: active, inactive

structureSmilesString: COc1ccc(OC)c(S(=O)(=O)N2CCN(C(=O)c3cc(C4CC4)nn3-c3ccccc3)CC2)c1
classAssignment: inactive
//
structureSmilesString: COc1cc(NC(=O)c2nnn(Cc3ccc(SC)cc3)c2N)cc(OC)c1
classAssignment: active
//
structureSmilesString: COc1ccccc1C(=O)Nc1nc(C)cc(C)n1
classAssignment: inactive
//
structureSmilesString: CC(C)=CCc1cc(-c2oc3cc(O)cc(O)c3c(=O)c2O)ccc1O
classAssignment: active
//
structureSmilesString: CCOc1cccc(-c2c(C(=O)N/N=C(\C)c3cccnc3)nnn2-c2nonc2N)c1
classAssignment: active
//
structureSmilesString: COc1ccc(-c2nc(N)n[nH]2)cc1
classAssignment: inactive

* * *

target: Glycogen synthase kinase-3 alpha (Homo sapiens); test: concentration-response blocking of human GSK3A – biochemical, luminescence, cell-free homogeneous, retest, dose response (AID 463203); conditions: GSK-3 alpha enzyme, ADP-Glo luminescence, 60 min
Active and inactive are the calls of the source.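 How the source made its calls: active means more than half of replicate measurements showing over 20% loss of kinase signal relative to plate controls; inconclusive means some but at most half of replicates over 20% loss; inactive means no replicate over 20% signal loss.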
Below: a set of entries, each annotated with reported AC50.
assayEndpoint: AC50

compound: O=c1[nH]nc(SCc2ccccc2Cl)n1-c1ccc2c(c1)OCCO2
assayedSystem: Glycogen synthase kinase-3 alpha (Homo sapiens)
assayEndpoint: AC50
observedMeasurement: 7.11 µM

compound: COc1ccccc1N=c1oc2c(OC)cccc2cc1C(=O)NCc1ccco1
assayedSystem: Glycogen synthase kinase-3 alpha (Homo sapiens)
assayEndpoint: AC50
observedMeasurement: > 30 µM (inactive)

compound: CC(=O)Oc1ccc(C(=O)c2ccccc2)c(OC(C)=O)c1
assayedSystem: Glycogen synthase kinase-3 alpha (Homo sapiens)
assayEndpoint: AC50
observedMeasurement: > 30 µM (inactive)

compound: N#Cc1c(-c2ccccc2Cl)c2c([nH]c1=O)-c1ccccc1OC2
assayedSystem: Glycogen synthase kinase-3 alpha (Homo sapiens)
assayEndpoint: AC50
observedMeasurement: > 30 µM (inactive)

compound: O=C(O)c1ccc2c(c1)S(=O)(=O)c1cc(Cl)ccc1C2=O
assayedSystem: Glycogen synthase kinase-3 alpha (Homo sapiens)
assayEndpoint: AC50
observedMeasurement: 6.54 µM

compound: CCNc1ccc2noc3c2c1C(=O)c1ccccc1-3
assayedSystem: Glycogen synthase kinase-3 alpha (Homo sapiens)
assayEndpoint: AC50
observedMeasurement: 10.8 µM

compound: N#CC1=C2SCN(Cc3ccco3)CN2C(=O)CC1c1ccccc1F (stereo not given)
assayedSystem: Glycogen synthase kinase-3 alpha (Homo sapiens)
assayEndpoint: AC50
observedMeasurement: > 30 µM (inactive)

compound: O=C(NCC1CCN(Cc2ccccc2Cl)CC1)Nc1ccccc1F
assayedSystem: Glycogen synthase kinase-3 alpha (Homo sapiens)
assayEndpoint: AC50
observedMeasurement: > 30 µM (inactive)

compound: CC(C)(C)c1cc(-c2nc(N)nc(N)n2)c(O)c(C(C)(C)C)c1
assayedSystem: Glycogen synthase kinase-3 alpha (Homo sapiens)
assayEndpoint: AC50
observedMeasurement: > 30 µM (inactive)

compound: Cc1nc2ncnn2c(C)c1Cc1ccccc1Cl
assayedSystem: Glycogen synthase kinase-3 alpha (Homo sapiens)
assayEndpoint: AC50
observedMeasurement: > 30 µM (inactive)

compound: COc1c(OC)c(O)c2c(=O)c(O)c(-c3ccccc3)oc2c1OC
assayedSystem: Glycogen synthase kinase-3 alpha (Homo sapiens)
assayEndpoint: AC50
observedMeasurement: > 30 µM (inactive)

compound: CC(C)OC(=O)/C(C#N)=C/c1c[nH]c2ccccc12
assayedSystem: Glycogen synthase kinase-3 alpha (Homo sapiens)
assayEndpoint: AC50
observedMeasurement: > 30 µM (inactive)

compound: COCCCNc1nc(N)c([N+](=O)[O-])c(N2CCCCCC2)n1
assayedSystem: Glycogen synthase kinase-3 alpha (Homo sapiens)
assayEndpoint: AC50
observedMeasurement: 9.97 µM

compound: CN1CCN(c2nc(NCc3ccco3)nc(N)c2[N+](=O)[O-])CC1
assayedSystem: Glycogen synthase kinase-3 alpha (Homo sapiens)
assayEndpoint: AC50
observedMeasurement: > 30 µM (inactive)

compound: O=C(O)c1cccc2c1C(=O)c1ccc(Cl)cc1S2(=O)=O
assayedSystem: Glycogen synthase kinase-3 alpha (Homo sapiens)
assayEndpoint: AC50
observedMeasurement: > 30 µM (inactive)

compound: CC(NC(=O)COc1ccccc1F)C1CC2CCC1C2 (stereo not given)
assayedSystem: Glycogen synthase kinase-3 alpha (Homo sapiens)
assayEndpoint: AC50
observedMeasurement: > 30 µM (inactive)

compound: CC(=O)Nc1ccc(Nc2ncnc(N)c2[N+](=O)[O-])cc1
assayedSystem: Glycogen synthase kinase-3 alpha (Homo sapiens)
assayEndpoint: AC50
observedMeasurement: > 30 µM (inactive)

compound: NC(=O)CSc1nc(C2CC2)nc2sc3c(c12)CCCC3
assayedSystem: Glycogen synthase kinase-3 alpha (Homo sapiens)
assayEndpoint: AC50
observedMeasurement: > 30 µM (inactive)

compound: Fc1ccccc1-c1nnc2ccc3ccccc3n12
assayedSystem: Glycogen synthase kinase-3 alpha (Homo sapiens)
assayEndpoint: AC50
observedMeasurement: > 30 µM (inactive)

compound: CCOc1ccc(Nc2nc(NCc3ccco3)nc(N)c2[N+](=O)[O-])cc1
assayedSystem: Glycogen synthase kinase-3 alpha (Homo sapiens)
assayEndpoint: AC50
observedMeasurement: > 30 µM (inactive)

compound: CCOC(=O)c1ccc(N2CSC3=C(C#N)C(c4cccs4)CC(=O)N3C2)cc1 (stereo not given)
assayedSystem: Glycogen synthase kinase-3 alpha (Homo sapiens)
assayEndpoint: AC50
observedMeasurement: > 30 µM (inactive)

compound: COc1c(-c2ccc(O)c(O)c2)oc2cc(O)cc(O)c2c1=O
assayedSystem: Glycogen synthase kinase-3 alpha (Homo sapiens)
assayEndpoint: AC50
observedMeasurement: 1.93 µM

compound: CCCCCCN=C(C)c1c(O)n(CCCC)c(=O)[nH]c1=O
assayedSystem: Glycogen synthase kinase-3 alpha (Homo sapiens)
assayEndpoint: AC50
observedMeasurement: > 30 µM (inactive)

compound: Cc1cc2c(C)c(C)c(=O)[nH]c2cc1N
assayedSystem: Glycogen synthase kinase-3 alpha (Homo sapiens)
assayEndpoint: AC50
observedMeasurement: > 30 µM (inactive)

compound: NC1=NC(=O)/C(=C\c2ccc(-c3ccc(Cl)cc3)o2)S1
assayedSystem: Glycogen synthase kinase-3 alpha (Homo sapiens)
assayEndpoint: AC50
observedMeasurement: 1.4 µM

compound: COc1ccc(/C=C2\Oc3cc(OCC(=O)N4CC(O)C[C@H]4C(=O)O)ccc3C2=O)c(OC)c1OC (stereo not given in full)
assayedSystem: Glycogen synthase kinase-3 alpha (Homo sapiens)
assayEndpoint: AC50
observedMeasurement: > 30 µM (inactive)

compound: CCn1c(SCc2nc3sc(C(=O)O)c(C)c3c(=O)[nH]2)nc2ccccc21
assayedSystem: Glycogen synthase kinase-3 alpha (Homo sapiens)
assayEndpoint: AC50
observedMeasurement: 10.8 µM

compound: CCOc1cc(/C=C2\N=C3CCCCCN3C2=O)ccc1O
assayedSystem: Glycogen synthase kinase-3 alpha (Homo sapiens)
assayEndpoint: AC50
observedMeasurement: 19.3 µM

compound: Nc1c(O)ccc2c1C(=O)c1ccccc1C2=O
assayedSystem: Glycogen synthase kinase-3 alpha (Homo sapiens)
assayEndpoint: AC50
observedMeasurement: 18.7 µM

compound: N#C/C(=N\Nc1ccccc1)C(N)=S
assayedSystem: Glycogen synthase kinase-3 alpha (Homo sapiens)
assayEndpoint: AC50
observedMeasurement: > 30 µM (inactive)

compound: COC(=O)c1sc(NC(=O)COc2ccc(OC)cc2)nc1C
assayedSystem: Glycogen synthase kinase-3 alpha (Homo sapiens)
assayEndpoint: AC50
observedMeasurement: 28.6 µM

compound: S=C(Nc1ccccc1)Nc1ccc2cn[nH]c2c1
assayedSystem: Glycogen synthase kinase-3 alpha (Homo sapiens)
assayEndpoint: AC50
observedMeasurement: 24.9 µM

compound: COc1ccc2[nH]c(C)c(CN3CCCCC3)c(=O)c2c1
assayedSystem: Glycogen synthase kinase-3 alpha (Homo sapiens)
assayEndpoint: AC50
observedMeasurement: > 30 µM (inactive)

compound: Cn1cnc(C(=O)NC2CCN(C(=O)OC(C)(C)C)CC2)c1C(=O)NC1CCN(C(=O)OC(C)(C)C)CC1
assayedSystem: Glycogen synthase kinase-3 alpha (Homo sapiens)
assayEndpoint: AC50
observedMeasurement: > 30 µM (inactive)

compound: Cc1cc(O)c(Oc2cc(C)cc(O)c2O)c(O)c1
assayedSystem: Glycogen synthase kinase-3 alpha (Homo sapiens)
assayEndpoint: AC50
observedMeasurement: > 30 µM (inactive)

compound: O=C(N/N=C/c1cccnc1)c1cc2c(ccc3ccccc32)o1
assayedSystem: Glycogen synthase kinase-3 alpha (Homo sapiens)
assayEndpoint: AC50
observedMeasurement: > 30 µM (inactive)

compound: COc1ccc(/C=N\NC(=O)c2ccccc2Br)cc1COc1ccccc1
assayedSystem: Glycogen synthase kinase-3 alpha (Homo sapiens)
assayEndpoint: AC50
observedMeasurement: > 30 µM (inactive)

compound: O=c1c(O[C@@H]2O[C@H](CO)[C@@H](O)[C@H](O)[C@H]2O)c(-c2ccc(O)cc2)oc2cc(O)cc(O)c12
assayedSystem: Glycogen synthase kinase-3 alpha (Homo sapiens)
assayEndpoint: AC50
observedMeasurement: 30.4 µM

compound: O=c1cc(-c2ccc(O)c(O)c2)oc2c1ccc1ccccc12
assayedSystem: Glycogen synthase kinase-3 alpha (Homo sapiens)
assayEndpoint: AC50
observedMeasurement: 5.66 µM

compound: O=C1N/C(=N\S(=O)(=O)Cc2ccccc2)S/C1=C/c1cccc([N+](=O)[O-])c1
assayedSystem: Glycogen synthase kinase-3 alpha (Homo sapiens)
assayEndpoint: AC50
observedMeasurement: > 30 µM (inactive)

compound: O=[N+]([O-])c1ccc(NCCCN2CCOCC2)nc1
assayedSystem: Glycogen synthase kinase-3 alpha (Homo sapiens)
assayEndpoint: AC50
observedMeasurement: > 30 µM (inactive)

compound: CCOC(=O)c1nnn(-c2nonc2-n2cccc2)c1C
assayedSystem: Glycogen synthase kinase-3 alpha (Homo sapiens)
assayEndpoint: AC50
observedMeasurement: > 30 µM (inactive)

compound: C=CCn1c(O)c(C=NCCCn2ccnc2)c(=O)[nH]c1=O
assayedSystem: Glycogen synthase kinase-3 alpha (Homo sapiens)
assayEndpoint: AC50
observedMeasurement: 14 µM

compound: COc1cc(/C=N/NC(=O)c2cccc(C(=O)N/N=C/c3ccc(O)c(OC)c3)n2)ccc1O
assayedSystem: Glycogen synthase kinase-3 alpha (Homo sapiens)
assayEndpoint: AC50
observedMeasurement: > 30 µM (inactive)

compound: O=C1/C(=C/c2ccc3c(c2)OCO3)Oc2cc(OCC(=O)N3CCC[C@H]3C(=O)O)ccc21
assayedSystem: Glycogen synthase kinase-3 alpha (Homo sapiens)
assayEndpoint: AC50
observedMeasurement: 4.35 µM
